B1: TRAF3IP2 (parent)
chain: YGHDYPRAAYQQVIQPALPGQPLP

Variants of: B1
Assay: protein stability index of a GFP-peptide fusion (GPS, HEK-293T) (PSI 1-6); higher = more stable;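 also: lentivirally expressed fusions sorted by FACS into six bins by GFP to DsRed ratio, PSI derived from sequencing read proportions per bin multiplied by bin number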
Settings: c terminus: a fixed tail appended
ENDPOINT LABEL: protein stability index
Please reply with the number alone, leaving off any unit.

Consider the reported protein stability index for these variants:
Input: Can you share its protein stability index? I mean this variant: YGHDYPRAAYQSVIQPALPGQPLP [Q12S]
Output: 2.13

Input: Any idea what protein stability index was measured for YGHDYPRAAYQQVIQPALPGWPLP [Q21W] ?
Output: 1.84

Input: May I ask what protein stability index has been recorded for YGHDYPRSAYQQVIQPALPGQPLP [A8S] ?
Output: 1.93

Input: Give the measured protein stability index of YGHDYPRAIYQQVIQPALPGQPLP [A9I] .
Output: 1.52

Further cases:
Input: Reported protein stability index, variant YGHDYPRAAYQQVIQPALPSQPLP [G20S] : ____
Output: 1.6

Input: Endpoint output: protein stability index of YGHDYPRAAYQQYIQPALPGQPLP [V13Y] . Value?
Output: 2.03

Input: Give its protein stability index value. Item: YGHDYPRAAYQQVAQPALPGQPLP [I14A]
Output: 1.5

Input: // returns reported protein stability index for input YGHDYPRAAYQQVIQPALDGQPLP [P19D]
Output: 1.98

Input: Give the measured protein stability index of YGRDYPRAAYQQVIQPALPGQPLP [H3R] .
Output: 2.19

Input: If you can, please state the reported protein stability index value of YGHDYPRAAYQQVIQPMLPGQPLP [A17M] .
Output: 1.95
